test: Long-term/accelerated stability (sealed, 25° C./60% RH and 40° C./75% RH); conditions: 25° C., 60% RH, sealed, 2 months
Measured Quantity: Purity % (%)
The reply should be a number in %, with the unit left off.

Return reported Purity %; argument: CCO[C@H]1C[C@H]2CC[C@@](c3ccc(C(=O)O)cc3)(C1)N2Cc1c(OC)cc(C)c2[nH]ccc12.Cc1ccc(S(=O)(=O)O)cc1 [crystal form I of the p-toluenesulfonate]
100.0

Return reported Purity %; argument: CCO[C@H]1C[C@H]2CC[C@@](c3ccc(C(=O)O)cc3)(C1)N2Cc1c(OC)cc(C)c2[nH]ccc12.O=P(O)(O)O [crystal form II of the phosphate]
99.4

Return reported Purity %; argument: CCO[C@H]1C[C@H]2CC[C@@](c3ccc(C(=O)O)cc3)(C1)N2Cc1c(OC)cc(C)c2[nH]ccc12.O=C(O)/C=C/C(=O)O [crystal form I of the fumarate]
100.0

Return reported Purity %; argument: CCO[C@H]1C[C@H]2CC[C@@](c3ccc(C(=O)O)cc3)(C1)N2Cc1c(OC)cc(C)c2[nH]ccc12.Cl [crystal form II of the hydrochloride]
100.0

Return reported Purity %; argument: CCO[C@H]1C[C@H]2CC[C@@](c3ccc(C(=O)O)cc3)(C1)N2Cc1c(OC)cc(C)c2[nH]ccc12.Cl [crystal form III of the hydrochloride]
99.6

---

test: Influencing factor stability (open flasks, light, high temperature, high humidity, 30 days); details: 40° C., 10 days, open flask
Measured Quantity: Purity % (%)
The reply should be a number in %, with the unit left off.

Return reported Purity %; argument: CCO[C@H]1C[C@H]2CC[C@@](c3ccc(C(=O)O)cc3)(C1)N2Cc1c(OC)cc(C)c2[nH]ccc12.O=C(O)/C=C/C(=O)O [crystal form I of the fumarate]
99.6

Return reported Purity %; argument: CCO[C@H]1C[C@H]2CC[C@@](c3ccc(C(=O)O)cc3)(C1)N2Cc1c(OC)cc(C)c2[nH]ccc12.Cc1ccc(S(=O)(=O)O)cc1 [crystal form I of the p-toluenesulfonate]
99.7

Return reported Purity %; argument: CCO[C@H]1C[C@H]2CC[C@@](c3ccc(C(=O)O)cc3)(C1)N2Cc1c(OC)cc(C)c2[nH]ccc12.Cl [crystal form III of the hydrochloride]
99.4

Return reported Purity %; argument: CCO[C@H]1C[C@H]2CC[C@@](c3ccc(C(=O)O)cc3)(C1)N2Cc1c(OC)cc(C)c2[nH]ccc12.Cl [crystal form II of the hydrochloride]
99.3

---

experiment: Influencing factor stability (open flasks, light, high temperature, high humidity, 30 days); settings: 40° C., 5 days, open flask
What Purity % was measured for each of the following?
The reply should be a number in %, with the unit left off.

Return reported Purity %; argument: CCO[C@H]1C[C@H]2CC[C@@](c3ccc(C(=O)O)cc3)(C1)N2Cc1c(OC)cc(C)c2[nH]ccc12.Cl [crystal form III of the hydrochloride]
99.6

Return reported Purity %; argument: CCO[C@H]1C[C@H]2CC[C@@](c3ccc(C(=O)O)cc3)(C1)N2Cc1c(OC)cc(C)c2[nH]ccc12.O=C(O)/C=C/C(=O)O [crystal form I of the fumarate]
99.7

Return reported Purity %; argument: CCO[C@H]1C[C@H]2CC[C@@](c3ccc(C(=O)O)cc3)(C1)N2Cc1c(OC)cc(C)c2[nH]ccc12.Cl [crystal form II of the hydrochloride]
99.4

Return reported Purity %; argument: CCO[C@H]1C[C@H]2CC[C@@](c3ccc(C(=O)O)cc3)(C1)N2Cc1c(OC)cc(C)c2[nH]ccc12.Cc1ccc(S(=O)(=O)O)cc1 [crystal form I of the p-toluenesulfonate]
99.8

---

assay: Long-term/accelerated stability (sealed, 25° C./60% RH and 40° C./75% RH); conditions: Initial
Measured Quantity: Purity % (%)
The reply should be a number in %, with the unit left off.

Return reported Purity %; argument: CCO[C@H]1C[C@H]2CC[C@@](c3ccc(C(=O)O)cc3)(C1)N2Cc1c(OC)cc(C)c2[nH]ccc12.O=P(O)(O)O [crystal form II of the phosphate]
99.9

Return reported Purity %; argument: CCO[C@H]1C[C@H]2CC[C@@](c3ccc(C(=O)O)cc3)(C1)N2Cc1c(OC)cc(C)c2[nH]ccc12.Cc1ccc(S(=O)(=O)O)cc1 [crystal form I of the p-toluenesulfonate]
100.0

Return reported Purity %; argument: CCO[C@H]1C[C@H]2CC[C@@](c3ccc(C(=O)O)cc3)(C1)N2Cc1c(OC)cc(C)c2[nH]ccc12.Cl [crystal form III of the hydrochloride]
99.6

Return reported Purity %; argument: CCO[C@H]1C[C@H]2CC[C@@](c3ccc(C(=O)O)cc3)(C1)N2Cc1c(OC)cc(C)c2[nH]ccc12.Cl [crystal form II of the hydrochloride]
100.0

Return reported Purity %; argument: CCO[C@H]1C[C@H]2CC[C@@](c3ccc(C(=O)O)cc3)(C1)N2Cc1c(OC)cc(C)c2[nH]ccc12.O=C(O)/C=C/C(=O)O [crystal form I of the fumarate]
100.0

---

assay: Long-term/accelerated stability (sealed, 25° C./60% RH and 40° C./75% RH); conditions: 25° C., 60% RH, sealed, 3 months
What Purity % was measured for each of the following?
The reply should be a number in %, with the unit left off.

Return reported Purity %; argument: CCO[C@H]1C[C@H]2CC[C@@](c3ccc(C(=O)O)cc3)(C1)N2Cc1c(OC)cc(C)c2[nH]ccc12.Cl [crystal form II of the hydrochloride]
100.0

Return reported Purity %; argument: CCO[C@H]1C[C@H]2CC[C@@](c3ccc(C(=O)O)cc3)(C1)N2Cc1c(OC)cc(C)c2[nH]ccc12.Cc1ccc(S(=O)(=O)O)cc1 [crystal form I of the p-toluenesulfonate]
100.0

Return reported Purity %; argument: CCO[C@H]1C[C@H]2CC[C@@](c3ccc(C(=O)O)cc3)(C1)N2Cc1c(OC)cc(C)c2[nH]ccc12.Cl [crystal form III of the hydrochloride]
99.6

Return reported Purity %; argument: CCO[C@H]1C[C@H]2CC[C@@](c3ccc(C(=O)O)cc3)(C1)N2Cc1c(OC)cc(C)c2[nH]ccc12.O=C(O)/C=C/C(=O)O [crystal form I of the fumarate]
100.0

---

What Purity % was measured for each of the following?
assay: Influencing factor stability (open flasks, light, high temperature, high humidity, 30 days); details: 60° C., 5 days, open flask
The reply should be a number in %, with the unit left off.

Return reported Purity %; argument: CCO[C@H]1C[C@H]2CC[C@@](c3ccc(C(=O)O)cc3)(C1)N2Cc1c(OC)cc(C)c2[nH]ccc12.Cl [crystal form II of the hydrochloride]
99.4

Return reported Purity %; argument: CCO[C@H]1C[C@H]2CC[C@@](c3ccc(C(=O)O)cc3)(C1)N2Cc1c(OC)cc(C)c2[nH]ccc12.Cl [crystal form III of the hydrochloride]
99.3

Return reported Purity %; argument: CCO[C@H]1C[C@H]2CC[C@@](c3ccc(C(=O)O)cc3)(C1)N2Cc1c(OC)cc(C)c2[nH]ccc12.Cc1ccc(S(=O)(=O)O)cc1 [crystal form I of the p-toluenesulfonate]
99.8

Return reported Purity %; argument: CCO[C@H]1C[C@H]2CC[C@@](c3ccc(C(=O)O)cc3)(C1)N2Cc1c(OC)cc(C)c2[nH]ccc12.O=C(O)/C=C/C(=O)O [crystal form I of the fumarate]
99.8

---

assay: Influencing factor stability (open flasks, light, high temperature, high humidity, 30 days); settings: Light exposure (4500 Lux), 30 days, open flask
Measured Quantity: Purity % (%)
The reply should be a number in %, with the unit left off.

Return reported Purity %; argument: CCO[C@H]1C[C@H]2CC[C@@](c3ccc(C(=O)O)cc3)(C1)N2Cc1c(OC)cc(C)c2[nH]ccc12.Cl [crystal form III of the hydrochloride]
96.2

Return reported Purity %; argument: CCO[C@H]1C[C@H]2CC[C@@](c3ccc(C(=O)O)cc3)(C1)N2Cc1c(OC)cc(C)c2[nH]ccc12.Cc1ccc(S(=O)(=O)O)cc1 [crystal form I of the p-toluenesulfonate]
99.7

Return reported Purity %; argument: CCO[C@H]1C[C@H]2CC[C@@](c3ccc(C(=O)O)cc3)(C1)N2Cc1c(OC)cc(C)c2[nH]ccc12.Cl [crystal form II of the hydrochloride]
96.5

Return reported Purity %; argument: CCO[C@H]1C[C@H]2CC[C@@](c3ccc(C(=O)O)cc3)(C1)N2Cc1c(OC)cc(C)c2[nH]ccc12.O=C(O)/C=C/C(=O)O [crystal form I of the fumarate]
99.5

---

assay: Influencing factor stability (open flasks, light, high temperature, high humidity, 30 days); conditions: light exposure (4500 Lux), 40° C. and 60° C., high humidity RH 75% and 92.5%, 30 days

- Compound: "CCO[C@H]1C[C@H]2CC[C@@](c3ccc(C(=O)O)cc3)(C1)N2Cc1c(OC)cc(C)c2[nH]ccc12.Cl [crystal form II of the hydrochloride]"
  physical stability: "good"
- Compound: "CCO[C@H]1C[C@H]2CC[C@@](c3ccc(C(=O)O)cc3)(C1)N2Cc1c(OC)cc(C)c2[nH]ccc12.Cl [crystal form III of the hydrochloride]"
  physical stability: "good"
- Compound: "CCO[C@H]1C[C@H]2CC[C@@](c3ccc(C(=O)O)cc3)(C1)N2Cc1c(OC)cc(C)c2[nH]ccc12.O=C(O)/C=C/C(=O)O [crystal form I of the fumarate]"
  physical stability: "good"
- Compound: "CCO[C@H]1C[C@H]2CC[C@@](c3ccc(C(=O)O)cc3)(C1)N2Cc1c(OC)cc(C)c2[nH]ccc12.Cc1ccc(S(=O)(=O)O)cc1 [crystal form I of the p-toluenesulfonate]"
  physical stability: "good"
